Tested on: Lolium perenne (LOLPE)
Assay: Post-emergence herbicidal activity, glasshouse pot test
Assay type: in vivo
Settings: 360 h, rate 125 g/ha, evaluated 15 days later, 100=total damage to plant, 0=no damage to plant
This listing pairs molecules with measured pest or weed control at 125 g/ha.
In your response, put the unit directly after the numeric value.

Answered cases to consult:
// recorded pest or weed control at 125 g/ha for CCc1ccc(-c2ccc(Cl)s2)cc1C1=C(O)[C@H]2[C@@H](C1=O)[C@]1(C)CC[C@@]2(C)O1 : 60%

// recorded pest or weed control at 125 g/ha for CCc1ccc(-c2ccc(Cl)c(F)c2)cc1C1=C(O)[C@H]2[C@@H](C1=O)[C@]1(C)CC[C@@]2(C)O1 : 80%

// recorded pest or weed control at 125 g/ha for CCc1ccc(-c2ccc(Cl)cc2C)cc1C1=C(O)[C@H]2[C@@H](C1=O)[C@]1(C)CC[C@@]2(C)O1 : 50%

Others:
// recorded pest or weed control at 125 g/ha for CCc1ccc(-c2ccc(Cl)c(C(F)(F)F)c2)cc1C1=C(O)[C@H]2[C@@H](C1=O)[C@@H]1CC[C@H]2O1 : 40%

// recorded pest or weed control at 125 g/ha for CCc1ccc(-c2ccc(Cl)c(Cl)c2)cc1C1=C(O)[C@H]2[C@@H](C1=O)[C@@H]1CC[C@H]2O1 : 30%

// recorded pest or weed control at 125 g/ha for CCc1ccc(-c2ccc(Cl)nc2Cl)cc1C1=C(O)[C@H]2[C@@H](C1=O)[C@@H]1CC[C@H]2O1 : 40%

// recorded pest or weed control at 125 g/ha for CCc1ccc(-c2ccc(Cl)c(Cl)c2)cc1C1=C(O)[C@H]2[C@@H](C1=O)[C@]1(C)CC[C@@]2(C)O1 : 50%

// recorded pest or weed control at 125 g/ha for CC(=O)OC1=C(c2c(C)cc(-c3ccccc3)cc2C)C(=O)[C@@H]2[C@H]1[C@H]1CC[C@@H]2O1 : 100%

// recorded pest or weed control at 125 g/ha for CCc1ccc(-c2ccc(Cl)c(C(F)(F)F)c2)cc1C1=C(O)[C@H]2[C@@H](C1=O)[C@]1(C)CC[C@@]2(C)O1 : 40%

Source of measurements: patent US8940913B2
